Hello, the source for this data is patent US9708500B2, in case you need it.

- cond: octanol/water
metric: logP
Field format: numeric only.

Problem: If you can, please state the reported logP value of CCCC(=O)OCC(COC(=O)CCC)OC(=O)CCC [glycerin tributyrate] .
Result: 2.95
